compounds and their reported pIC50
system_tested: JAK3: Recombinant human kinase domain (Homo sapiens, UniProt P52333)
Construct: JAK3: Recombinant human kinase domain from Millipore (Cat #14-629) or prepared
Sequence (P52333 822-1111 limits assumed): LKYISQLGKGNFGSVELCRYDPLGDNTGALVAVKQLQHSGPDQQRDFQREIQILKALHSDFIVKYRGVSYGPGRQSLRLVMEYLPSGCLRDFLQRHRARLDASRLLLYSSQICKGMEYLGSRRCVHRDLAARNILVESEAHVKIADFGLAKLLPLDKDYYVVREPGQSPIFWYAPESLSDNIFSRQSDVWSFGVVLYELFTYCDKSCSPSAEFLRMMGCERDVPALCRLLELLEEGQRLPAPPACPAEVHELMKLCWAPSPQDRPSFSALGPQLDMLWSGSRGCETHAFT
experiment_summary: Determination of IC50 of Janus Kinase (JAK) inhibition, radioactive end-point 33P-ATP assay, JAK3
run_parameters: ATP 1.5 uM, peptide 50 uM, 20 minutes, read-out: JAK3-INHIB-DR/v1~NO ADDITIVE~Enzyme_Conc = 100
Just so you know, pIC50 here is -log10 of the concentration in molar units; reply with that number alone.

1. C[C@@H](NC(=O)c1c[nH]c2ncc(-c3nn(C)c4cc(Cl)ccc34)nc12)[C@@H]1C[C@@H]1C#N (single isomer, unassigned) [Example I-206]	7.76
2. C[C@H](CN1CC[C@H](F)C1)NC(=O)c1c[nH]c2ncc(-c3nn(C)c4cc(Cl)ccc34)nc12 [Example I-122]	7.08
3. C[C@@H](O)[C@@H](CO)NC(=O)c1c[nH]c2ncc(-c3nn(C)c4cc(F)ccc34)nc12 [Example I-176]	6.78

Consider the additional compound presented here.
In: Record C[C@@H](NC(=O)c1c[nH]c2ncc(-c3nn(CCCO)c4cc(Cl)ccc34)nc12)C(=O)N1CC(C#N)C1 [Example I-96] : what is its pIC50 with JAK3: Recombinant human kinase domain (Homo sapiens, UniProt P52333)?
Out: 8.27
